// data source = the supplement of paper PMC10567573

B1: WEE1 (parent)
chain: FLGSSFSPVRCGGPGDASPRGCGA

Variants of: B1
ASSAY_PROCEDURE: protein stability index of a GFP-peptide fusion (GPS, HEK-293T) (PSI 1-6); higher = more stable;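 further: lentivirally expressed fusions sorted by FACS into six bins by GFP to DsRed ratio, PSI derived from sequencing read proportions per bin multiplied by bin number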
STATED_CONDITIONS: c terminus: a fixed tail appended
Entry flag: fulfilled if protein stability index reaches 2; not fulfilled if it does not.

I'd appreciate it if you could say whether G13T has protein stability index at least equal to 2. not fulfilled

I'd appreciate it if you could say whether S4P has protein stability index at least equal to 2. not fulfilled

I'd appreciate it if you could say whether P8W has protein stability index at least equal to 2. fulfilled

I'd appreciate it if you could say whether G23M has protein stability index at least equal to 2. not fulfilled

I'd appreciate it if you could say whether A24I has protein stability index at least equal to 2. not fulfilled

I'd appreciate it if you could say whether L2F has protein stability index at least equal to 2. fulfilled

I'd appreciate it if you could say whether F6S has protein stability index at least equal to 2. fulfilled

I'd appreciate it if you could say whether G15V has protein stability index at least equal to 2. not fulfilled

I'd appreciate it if you could say whether S5M has protein stability index at least equal to 2. fulfilled

I'd appreciate it if you could say whether A24S has protein stability index at least equal to 2. not fulfilled

I'd appreciate it if you could say whether F1N has protein stability index at least equal to 2. fulfilled

I'd appreciate it if you could say whether A17R has protein stability index at least equal to 2. fulfilled

I'd appreciate it if you could say whether P19H has protein stability index at least equal to 2. not fulfilled

I'd appreciate it if you could say whether P19M has protein stability index at least equal to 2. not fulfilled

I'd appreciate it if you could say whether G21T has protein stability index at least equal to 2. fulfilled

I'd appreciate it if you could say whether F6R has protein stability index at least equal to 2. fulfilled

I'd appreciate it if you could say whether S4T has protein stability index at least equal to 2. not fulfilled

I'd appreciate it if you could say whether G15K has protein stability index at least equal to 2. not fulfilled

I'd appreciate it if you could say whether S18V has protein stability index at least equal to 2. fulfilled

I'd appreciate it if you could say whether S5G has protein stability index at least equal to 2. not fulfilled

I'd appreciate it if you could say whether R10Q has protein stability index at least equal to 2. not fulfilled
